Tested on: RXF 393 renal
test: NCI tumour cell line growth inhibition, 48 h
readout_kind: GI50

Bench note: what GI50 did C/C(=N\NC(=O)c1ccccc1O)c1cccc(/C(C)=N/NC(=O)c2ccccc2O)n1 show?
5.38 µM

And then COc1ccc2c(c1)sc1nc(-c3ccccc3)c(-c3ccc(O)c(OC)c3)n12 , what is it?
4.9 µM

And then CC(=O)OC1CCC2(C)C(CCC3C4CC=C(C(C)=O)C4(C)OC(=O)CC32)C1 (stereo not given) , what is it?
1.15 µM

And then CCN(C(=O)CCl)C(C)(C)C(SSSC(c1ccc(Cl)cc1)C(C)(C)N(CC)C(=O)CCl)c1ccc(Cl)cc1 (stereo not given) , what is it?
2.95 µM

And then Fc1ccc(-c2nnc3sc(COc4ccccc4Cl)nn23)cc1Cl , what is it?
38.1 µM
